Catalogue of binders with associated EC50; SRE-luciferase reporter
Target: T1, GPR39 (G protein coupled receptor 39) (UniProt O43194 1-453, limits assumed)
T1 sequence (looked up): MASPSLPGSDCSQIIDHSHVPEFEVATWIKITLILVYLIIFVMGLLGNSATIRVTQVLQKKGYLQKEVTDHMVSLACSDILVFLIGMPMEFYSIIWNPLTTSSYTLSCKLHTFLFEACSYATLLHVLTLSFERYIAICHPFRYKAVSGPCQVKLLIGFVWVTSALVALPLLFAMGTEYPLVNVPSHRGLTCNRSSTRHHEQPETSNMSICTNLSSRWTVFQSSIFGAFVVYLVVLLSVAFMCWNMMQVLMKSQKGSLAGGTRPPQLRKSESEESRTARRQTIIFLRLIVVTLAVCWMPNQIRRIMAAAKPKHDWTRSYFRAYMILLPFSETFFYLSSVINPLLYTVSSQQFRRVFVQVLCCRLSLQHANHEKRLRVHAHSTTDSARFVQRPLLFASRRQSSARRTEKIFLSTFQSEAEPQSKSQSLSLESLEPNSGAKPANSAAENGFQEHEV
Experiment: cell-based or functional assay
Square brackets hold non-standard residues; d marks the D form. Ends that are not written are not given here. * marks the point of attachment. DAMP‑5 = 3-(2-cyclohexylethyl) substitution on the histidine imidazole ring (3-(2-cyclohexylethyl)-2,3-dihydro-1H-imidazol-4-yl side chain); dPhe(4-Cl) = N[C@H](Cc1ccc(Cl)cc1)C(=O)O; Trt = c1ccc(C(c2ccccc2)(c2ccccc2)*)cc1; Octanoyl = CCCCCCCC(=O)*
# output: bare number, implied unit nM

Example entries and their recorded answers appear below.
# BINDER, UNITS_SYMBOL, EC50; SRE-luciferase reporter
measured = [
    ("H(Trt)K(Octanoyl)FYW [HKFY-44]", "nM", 370),
    ("H(DAMP‑5)K(Octanoyl)FY [HKFY-7]", "nM", 1560),
]

Now let's try a different one.
Report measured EC50; SRE-luciferase reporter; entry is H(Trt)K(Octanoyl)[dPhe(4-Cl)][dY] [HKFY-15]
98
